Method summary: chemical genetic growth profiling, strain panel (AID 1159580);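 also: tested at 20 µM; growth read once vehicle control cultures reached saturation at 30 °C; 1 = growth at the plate median or of vehicle wells; lower values mean less growth of the strain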
Assay context: S. cerevisiae deletion strains, growth OD, locus YCR088W, strain abp1, stronger effect = lower value
Out of some 5,500 compounds screened, about 2,000 (36%) were called active. Inconclusive results (about 18%) are left out. The list shows a part of the results.
molecules and their reported normalized growth
Returns: the value as a bare number; no unit string appended.

# Molecule, Experimental value
data = [
    ("CCN1C[C@@]2(COC)C3[C@@H](OC)[C@H]4[C@@H]1[C@]3(C(OC)C[C@H]2O)C1C[C@@]2(O)[C@H](OC(=O)c3ccccc3)C1[C@]4(OC(C)=O)[C@@H](O)[C@@H]2OC (stereo partly specified)", 1),
]

Incoming: Read the entry CC12CCCCC1(Br)[N+](=O)N2[O-] (stereo unspecified) and write its reported normalized growth.
Outgoing: 0.983

Incoming: Read the entry NC(N)=NCCN1CCCCCCC1 and write its reported normalized growth.
Outgoing: 1.03

# credit: PubChem BioAssay AID1159580
